# ASSAY PROCEDURE: Probe fluorescence ratio response to arachidonic acid relative to ADIFAB2
# Assay type: binding
# MEASUREMENT CONDITIONS: arachidonic acid; response relative to ADIFAB2
VALUE KIND: DR/DR AA
Give a plain numeric answer without units written out.

A selection of reference data follows.
MOLECULE	DR/DR AA
18I 31V 55V 73V 72A (protein, listed as Rattus norvegicus, PEPTIDE (1)...(131) wild-type rat intestinal fatty acid binding protein) AFDGTWKVDRNENYEKFIEKMGINVVKRKLVAHDNLKLTITQEGNKFTVKESSNVRNIDVVFELGVDFAYSAVDGTELTGTWTMEGNKLVGKFKRVDNGKELIAVREISGNELIQTYTYEGVEAKRIFKKE	0.632
38Y 18L 73V 72A (protein, listed as Rattus norvegicus, PEPTIDE (1)...(131) wild-type rat intestinal fatty acid binding protein) AFDGTWKVDRNENYEKFLEKMGINVVKRKLGAHDNLKYTITQEGNKFTVKESSNFRNIDVVFELGVDFAYSAVDGTELTGTWTMEGNKLVGKFKRVDNGKELIAVREISGNELIQTYTYEGVEAKRIFKKE	1.172

*Q* So what's the measured DR/DR AA for this one? 60I, 72A (protein, listed as Rattus norvegicus, PEPTIDE (1)...(131) wild-type rat intestinal fatty acid binding protein) AFDGTWKVDRNENYEKFMEKMGINVVKRKLGAHDNLKLTITQEGNKFTVKESSNFRNIDIVFELGVDFAYSAADGTELTGTWTMEGNKLVGKFKRVDNGKELIAVREISGNELIQTYTYEGVEAKRIFKKE
*A* 1.539
